Reference source: patent US20130150354A1

- Assayed target: CCR2 (Homo sapiens, UniProt P41597)
- Construct: Membranes were prepared from THP-1 cells; endogenous in cells; host or cells: THP-1 (human acute monocytic leukaemia cells), membrane preparation
- Sequence (P41597 1-360 isoform P41597-2): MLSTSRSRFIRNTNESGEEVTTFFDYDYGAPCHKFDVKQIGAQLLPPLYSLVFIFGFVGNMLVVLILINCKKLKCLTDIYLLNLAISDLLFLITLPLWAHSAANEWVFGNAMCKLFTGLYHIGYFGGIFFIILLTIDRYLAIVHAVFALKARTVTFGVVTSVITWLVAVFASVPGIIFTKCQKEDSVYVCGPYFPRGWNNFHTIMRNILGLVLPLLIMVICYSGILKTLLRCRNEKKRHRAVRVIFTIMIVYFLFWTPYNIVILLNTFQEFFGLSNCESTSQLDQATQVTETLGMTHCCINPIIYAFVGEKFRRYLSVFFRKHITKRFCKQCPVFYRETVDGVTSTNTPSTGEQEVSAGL
- Assay method text: CCR2 receptor membrane binding assay (THP-1 membranes, 125I-MCP-1, SPA beads)
- Study conditions: THP-1 cell membranes, 125I-MCP-1, 8 h; read-out: hKi [nM] (CCR2)
Quantity kind: Ki (nM)

Cc1c(C(=O)N2CCC(N3C[C@H]4C[C@@H](N(C)S(C)(=O)=O)C[C@H]4C3)CC2)ncnc1N1CCc2ccc(C(F)(F)F)cc2C1 [Example 7] :: 0.6

I = Cc1c(NC[C@H]2CCC[C@@H](c3ccc(C(F)(F)F)cc3)O2)ncnc1C(=O)N1CCC(N2CCOC3COCCC32)CC1 (stereo partly drawn) [Example 21]
II = Cc1c(Nc2cccc(C(F)(F)F)c2)nc(C2CC2)nc1C(=O)N1CCC(N2CCO[C@H]3COCC[C@H]32)CC1 [Example 29]
Data request: Form field 'greater Ki' accepts I or II ; which applies? Your answer should be the label of the entry you select.
Data returned: I
